The following compounds were reported with Ki values on Glutamate receptor 3 (Rattus norvegicus) in different studies.
Sequence (P19492 whole entry): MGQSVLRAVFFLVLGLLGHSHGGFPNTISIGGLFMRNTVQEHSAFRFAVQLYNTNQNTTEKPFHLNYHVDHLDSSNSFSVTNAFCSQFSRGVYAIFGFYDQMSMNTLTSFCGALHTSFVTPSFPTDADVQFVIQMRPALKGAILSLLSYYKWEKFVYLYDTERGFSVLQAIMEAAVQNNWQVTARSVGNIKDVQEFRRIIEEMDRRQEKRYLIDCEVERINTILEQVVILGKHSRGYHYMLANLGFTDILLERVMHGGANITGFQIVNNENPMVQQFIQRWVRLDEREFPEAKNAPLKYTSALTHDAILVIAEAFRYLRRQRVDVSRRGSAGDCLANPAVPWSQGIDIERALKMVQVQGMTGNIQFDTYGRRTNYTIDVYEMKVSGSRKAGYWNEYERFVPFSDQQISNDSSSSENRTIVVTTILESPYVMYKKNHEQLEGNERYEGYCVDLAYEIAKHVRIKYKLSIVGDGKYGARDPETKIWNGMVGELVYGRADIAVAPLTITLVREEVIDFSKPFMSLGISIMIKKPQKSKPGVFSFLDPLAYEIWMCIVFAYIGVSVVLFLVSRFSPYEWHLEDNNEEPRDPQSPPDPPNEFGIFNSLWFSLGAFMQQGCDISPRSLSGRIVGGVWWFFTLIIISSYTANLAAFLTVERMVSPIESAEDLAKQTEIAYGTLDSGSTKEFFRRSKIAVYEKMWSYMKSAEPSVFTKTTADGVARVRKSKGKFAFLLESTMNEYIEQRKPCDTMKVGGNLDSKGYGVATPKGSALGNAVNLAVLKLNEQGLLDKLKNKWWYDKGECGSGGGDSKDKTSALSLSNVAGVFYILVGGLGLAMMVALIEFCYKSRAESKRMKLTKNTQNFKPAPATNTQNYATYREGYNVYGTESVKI

1) Cc1o[nH]c(=O)c1CC(C(=O)O)N(C)C (centres undefined) : > 10 µM
2) Cc1ncccc1-n1c(/C=C/C2CS[C@H](C)N2)nc2ccccc2c1=O (some centres undefined) : > 10 µM
3) CCN(CC)Cc1cccc(/C=C/c2nc3ccc(F)cc3c(=O)n2-c2ccccc2Cl)n1 : 0.025 µM
4) CNC(Cc1c(C)o[nH]c1=O)C(=O)O (centres undefined) : > 10 µM
5) COc1ccccc1N1CCN(CCN(C(=O)C2CCCCC2)c2ccccn2)CC1 : > 10 µM

// fetch Ki given entry N#Cc1cc2nc(O)c(O)nc2cc1[N+](=O)[O-]
0.47 µM

Give the measured Ki for O=C(CCCN1CCC(O)(c2ccc(Cl)cc2)CC1)c1ccc(F)cc1
> 10 µM

Provide one value: measured Ki of C[C@H](NC(=O)CNC(=O)[C@@H](NC(=O)[C@H](Cc1ccccc1)NC(=O)CNC(=O)CNC(=O)[C@@H](N)Cc1ccccc1)[C@@H](C)O)C(=O)N[C@@H](CCCN=C(N)N)C(=O)N[C@@H](CCCCN)C(=O)N[C@@H](CO)C(=O)N[C@@H](C)C(=O)N[C@@H](CCCN=C(N)N)C(=O)N[C@@H](CCCCN)C(N)=O
0.27 µM

Fill in Ki for record NC(=O)c1ccc(F)c2c1CC(N(C1CCC1)C1CCC1)CO2 (centres undefined)
> 10 µM
